# study.target: human 4-1BB on CHO-K1 cells (human, UniProt Q07011 24-255)
# Sequence (Q07011 24-255): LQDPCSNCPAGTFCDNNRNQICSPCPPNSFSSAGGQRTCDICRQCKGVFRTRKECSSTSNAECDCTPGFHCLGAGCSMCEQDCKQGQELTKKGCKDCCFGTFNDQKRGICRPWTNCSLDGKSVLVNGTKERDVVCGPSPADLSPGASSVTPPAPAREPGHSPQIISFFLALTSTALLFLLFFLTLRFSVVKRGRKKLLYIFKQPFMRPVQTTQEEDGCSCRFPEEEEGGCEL
# test.summary: FACS blocking of 4-1BBL
Can you tell me IC50 for the items I'm about to list?
Answers are plain numbers, in nM.

Before answering, review these 4 worked examples.
binder="PR001775 (antibody, V domains shown) VH: EVQLLESGGGLVQSGGSLRLSCAASGFTFSSYAMSWVRQAPGKGLEWVSAISGSGGSTDYADSVKGRFTISRDNSTNTLYLQMNSLRAEDTAVYYCAKERAYDYSNYVDFDYWGQGTLVTVSS" unit_descriptor=nM reported_value=2.4
binder="PR001836 (antibody, V domains shown) VH: EVQLLESGGGLVQPGGSLRLSCAASGFIFSNFAMTWVRQPPEKGLKWVSSINGSGFNTYYTDSVKGRFTISRDNSRNTLYLQMNRLTAEDTAVYFCAKEGSSETDDHYYNVDVWGQGTTVTVSS" unit_descriptor=nM reported_value=2.12
binder="PR001833 (antibody, V domains shown) VH: EVQLLESGGGLVQPGGSLRLSCAASGFTFSSYAMSWVRQAPEKGLEWVSSISGSGGSTFYADSVKGRFTISRDNSKNTLYLQMNSLRAEDTAVYFCAKEGATETDDYHFNTDVWGQGTTVTVSS" unit_descriptor=nM reported_value=2.31
binder="PR001780 (antibody, V domains shown) VH: EVQLLESGGGLIQPGGSLRLSCAASGFTFSSFAMTWVRQAPGKGLEWVSTISGSGDNTYYADSVKGRFTISRDNSKNTLYLQMNSLRAEDTAVYFCAKEDTAVASDYYYNIDVWGQGTTVTVSS" unit_descriptor=nM reported_value=6.33

Consider now this further binder.
Item PR001831 (antibody, V domains shown) VH: EVQLVESGGGVIQPGGSLRLSCEASGFTFSSYAMSWVRQAPEKGLEWVSSISGSGDSTYYADSVKGRFTISRDNSKNTLYLQMNSLRAEDTAGYHCAKEGSNGTDDYHYDIDVWGQGTSVTVSS : provide IC50
4.05
